biological target: GST-tagged-Wee1 kinase (Homo sapiens, UniProt P30291); assay: Wee1 time-resolved fluorescence equilibrium binding assay (displacement of Oregon Green-labeled ATP-competitive kinase probe)
Sequence (P30291 whole entry): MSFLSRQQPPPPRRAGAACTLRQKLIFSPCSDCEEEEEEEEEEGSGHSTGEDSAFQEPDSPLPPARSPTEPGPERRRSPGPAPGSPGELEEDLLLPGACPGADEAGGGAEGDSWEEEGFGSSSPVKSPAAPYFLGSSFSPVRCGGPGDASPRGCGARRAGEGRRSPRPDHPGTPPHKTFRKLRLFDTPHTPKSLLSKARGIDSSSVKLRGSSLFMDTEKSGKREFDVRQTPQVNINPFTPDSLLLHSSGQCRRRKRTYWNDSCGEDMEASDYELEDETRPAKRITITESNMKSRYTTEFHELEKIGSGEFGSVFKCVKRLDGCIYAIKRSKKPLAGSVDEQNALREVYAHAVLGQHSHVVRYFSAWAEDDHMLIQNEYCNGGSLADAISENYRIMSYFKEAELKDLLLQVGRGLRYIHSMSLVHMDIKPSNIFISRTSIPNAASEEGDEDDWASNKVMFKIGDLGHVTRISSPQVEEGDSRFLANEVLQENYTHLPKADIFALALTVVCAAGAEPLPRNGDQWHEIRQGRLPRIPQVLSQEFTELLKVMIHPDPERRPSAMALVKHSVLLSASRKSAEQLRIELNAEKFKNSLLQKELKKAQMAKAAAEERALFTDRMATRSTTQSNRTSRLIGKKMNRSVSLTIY
readout_kind: Ki (nM)

> print(dat)
                                     smiles  result.units  recorded.result
1  Cc1nn(-c2c(Cl)cccc2Cl)c(=O)c2cnc(Nc3cccc(C(=O)N4CCN(CCO)CC4)c3)nc12            nM              2.8
2  Cc1nn(-c2c(F)cccc2Cl)c(=O)c2cnc(Nc3ccc(N4CCNCC4)cc3)nc12            nM                1
3  CC(=O)N1Cc2cc(Nc3ncc4c(=O)n(-c5c(Cl)cccc5Cl)nc(-c5ccncc5)c4n3)ccc2C2(CC2)C1            nM             0.45

A: CN1CCN(CCn2cc(-c3nn(-c4c(Cl)cccc4Cl)c(=O)c4cnc(Nc5ccc(N6CCN(C)CC6)cc5)nc34)cn2)CC1
B: CC(=O)c1cccc(-c2nn(-c3c(Cl)cccc3Cl)c(=O)c3cnc(Nc4ccc(N5CCN(C)CC5)cc4)nc23)n1
Hi there! Just curious which has the higher Ki between A and B . Please respond with the label that marks your chosen entry. A
(A: 0.4 nM, B: 0.2 nM)

1: CCc1nn(-c2c(Cl)cccc2Cl)c(=O)c2cnc(Nc3ccc4c(c3)C(C)(C)NCC4)nc12
2: CC1(C)CNCc2cc(Nc3ncc4c(=O)n(CCO)nc(-c5ccccn5)c4n3)ccc21
Which of the two items, 1 and 2 , has the greater recorded Ki? Indicate which entry you chose by stating its label. 2
(2: 30 nM, 1: 0.55 nM)

====

biological target: UniProtKB P30291; experiment: Wee1 time-resolved fluorescence equilibrium binding assay (displacement of Oregon Green-labeled ATP-competitive kinase probe)
pKi: −log10 of the molar value.
readout_kind: pKi

Worked examples, 6 compounds total:
> print(dat)
                                   compound  recorded.result
1  Cc1nn(-c2c(Cl)cccc2Cl)c(=O)c2cnc(Nc3ccc4c(c3)CN(CC(F)(F)F)CC4(C)C)nc12 [Example 370]             7.46
2  CN1CCN(c2ccc(Nc3ncc4c(=O)n(-c5ccccc5)nc(-c5ccncc5)c4n3)cc2)CC1 [Example 154]             8.05
3  CCc1nn(-c2c(Cl)cccc2Cl)c(=O)c2cnc(Nc3ccc4c(c3)CN(C)CC43CC3)nc12 [Example 402]             9.64
4  CCOc1ncccc1-c1nn(-c2ccccc2)c(=O)c2cnc(Nc3ccc(N4CCN(C)CC4)cc3)nc12 [Example 79]             6.15
5  O=c1c2cnc(Nc3ccc(N4CCNCC4)cc3)nc2c(-c2cccc(CN3CCCCC3)c2)nn1-c1c(Cl)cccc1Cl [Example 237]             9.70
6  CN1CCN(c2ccc(Nc3ncc4c(=O)n(-c5c(Cl)cccc5Cl)nc(-c5ccc(C(=O)O)cc5)c4n3)cc2)CC1 [Example 290]             9.48

a: Cc1ccccc1-n1nc(-c2ccccc2F)c2nc(Nc3ccc(N4CCN(C)CC4)cc3)ncc2c1=O [Example 36]
b: CN1CCN(c2ccc(Nc3ncc4c(=O)n(-c5ccccc5Cl)nc(Cc5ccccc5)c4n3)cc2)CC1 [Example 26]
Return label of the item with the larger pKi. Candidates: a , b . Response format: the label of the selected entry. a
(a: 8.52, b: 7.92)

P: CN1CCN(c2ccc(Nc3ncc4c(=O)n(-c5ccccc5Cl)nc(CCc5ccccc5)c4n3)cc2)CC1 [Example 24]
Q: Cc1ccccc1-n1nc(-c2ccccc2)c2nc(Nc3ccc(N4CCCC4=O)cc3)ncc2c1=O [Example 141]
Hi team, can someone confirm which has the larger pKi: P or Q ? Thanks. Kindly give the label for the entry you pick. P
(P: 8.70, Q: 8.15)

a: Cn1ccnc1-c1nn(-c2c(Cl)cccc2Cl)c(=O)c2cnc(Nc3ccc(N4CCNCC4)cc3)nc12 [Example 355]
b: Cc1nn(-c2c(F)cccc2Cl)c(=O)c2cnc(Nc3ccc4c(c3)CNCC43CC3)nc12 [Example 308]
For the pair a and b , which member has the lower pKi number? Identify your selection by its label. a
(a: 8.62, b: 9.00)
